We begin with a simple list: items and their reported pIC50.
biological target: Human immunodeficiency virus type 1 reverse transcriptase (Human immunodeficiency virus 1, UniProt Q72547, E138K); assay: Inhibition of HIV1 RT E138K mutant in presence of reconstituted template and viral nucleotides [digoxigenin (DIG)-dUTP, biotin-dUTP and dTTP] incubated for 1 hr by ELISA method
Kindly note that pIC50 refers to -log10 of the concentration in mol/L and answer with the value alone.

Structure notation | pIC50
Cc1cc(C#N)cc(C)c1Oc1nc(NC2CCN(Cc3ccc(S(N)(=O)=O)cc3)CC2)nc2ccsc12 | 6.70
Cc1cc(/C=C/C#N)cc(C)c1Oc1nc(NC2CCN(Cc3ccc(S(N)(=O)=O)cc3)CC2)nc2sccc12 | 6.43

Here's the next entry for you.
Given item Cc1cc(/C=C/C#N)cc(C)c1Oc1nc(NC2CCN(Cc3ccc(S(N)(=O)=O)cc3)CC2)nc2ccsc12 , the value recorded as its pIC50 is 6.46

----------
A collection of compounds and their measured IC50
target: Human immunodeficiency virus type 1 reverse transcriptase (Human immunodeficiency virus 1, UniProt Q72547, Y188L); assay: Inhibition of HIV1 RT Y188L mutant in presence of reconstituted template and viral nucleotides [digoxigenin (DIG)-dUTP, biotin-dUTP and dTTP] incubated for 1 hr by ELISA method

Examples with answers:
Structure notation | Result
Cc1cc(C#N)cc(C)c1Oc1nc(NC2CCN(Cc3ccc(S(N)(=O)=O)cc3)CC2)nc2ccsc12 | 215 nM
Cc1cc(/C=C/C#N)cc(C)c1Oc1nc(NC2CCN(Cc3ccc(S(N)(=O)=O)cc3)CC2)nc2sccc12 | 452 nM

Reported IC50 for Cc1cc(/C=C/C#N)cc(C)c1Oc1nc(NC2CCN(Cc3ccc(S(N)(=O)=O)cc3)CC2)nc2ccsc12 was 301 nM

----------
assay: Aqueous solubility of the compound in pH 7 buffer; format: physicochemical
Measurement kind: solubility

Cc1cc(C#N)cc(C)c1Oc1nc(Nc2ccc(C#N)cc2)nc(N)c1Br [ETRAVIRINE] has a reported solubility of < 1 µg/mL

----------
target: Human immunodeficiency virus type 1 reverse transcriptase (Human immunodeficiency virus 1, UniProt Q72547, L100I); assay: Inhibition of HIV1 RT L100I mutant in presence of reconstituted template and viral nucleotides [digoxigenin (DIG)-dUTP, biotin-dUTP and dTTP] incubated for 1 hr by ELISA method
Property: IC50; scope: individual compounds
Number in nM, nothing else.

The compound identified as Cc1cc(C#N)cc(C)c1Oc1nc(NC2CCN(Cc3ccc(S(N)(=O)=O)cc3)CC2)nc2ccsc12 registered its IC50 at 92

Lookup result for Cc1cc(/C=C/C#N)cc(C)c1Oc1nc(NC2CCN(Cc3ccc(S(N)(=O)=O)cc3)CC2)nc2ccsc12 ; measured IC50: 99

----------
system: Human immunodeficiency virus 1; assay type: functional, organism-based; details: Human immunodeficiency virus 1, MT4, 120 h
Measurement kind: pEC50
# pEC50 is unitless: minus log10 of the molar concentration; print number only

Guide cases for pEC50, answers given:
Structure notation | Numeric readout
Cc1cc(/C=C/C#N)cc(C)c1Oc1nc(NC2CCN(Cc3ccc(C#N)cc3)CC2)nc2sccc12 | 7.49
Cc1cc(/C=C/C#N)cc(C)c1Oc1nc(NC2CCN(Cc3cccc(C(N)=O)c3)CC2)nc2sccc12 | 7.91
Cc1cc(/C=C/C#N)cc(C)c1Oc1nc(NC2CCN(Cc3ccc(C(N)=O)cc3)CC2)nc2sccc12 | 7.82
Cc1cc(/C=C/C#N)cc(C)c1Oc1nc(NC2CCN(Cc3ccc(F)cc3)CC2)nc2sccc12 | 6.90
Cc1cc(/C=C/C#N)cc(C)c1Oc1nc(NC2CCN(Cc3ccc(S(N)(=O)=O)cc3)CC2)nc2sccc12 | 8.32

response.value for CCOC(=O)c1ccc(CN2CCC(Nc3nc(Oc4c(C)cc(/C=C/C#N)cc4C)c4ccsc4n3)CC2)cc1 (field: pEC50) = 7.49

Every entry's value here was drawn from ChEMBL document CHEMBL4354878.
